Target: Aurora kinase B (Homo sapiens, UniProt Q96GD4)
Sequence (Q96GD4 whole entry): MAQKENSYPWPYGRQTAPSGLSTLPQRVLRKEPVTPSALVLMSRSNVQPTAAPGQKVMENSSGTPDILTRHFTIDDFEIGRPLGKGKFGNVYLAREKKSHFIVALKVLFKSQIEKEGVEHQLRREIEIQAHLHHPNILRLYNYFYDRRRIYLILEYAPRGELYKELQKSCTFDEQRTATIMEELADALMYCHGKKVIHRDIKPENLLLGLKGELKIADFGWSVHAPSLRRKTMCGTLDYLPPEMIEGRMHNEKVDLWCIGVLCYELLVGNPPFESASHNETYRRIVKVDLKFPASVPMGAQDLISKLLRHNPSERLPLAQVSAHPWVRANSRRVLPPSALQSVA
Assay: Inhibition of aurora B kinase in human HT-29 cells assessed as inhibition of histone H3 S10 phosphorylation
Criterion: IC50 strictly under 2 µM. Met: met. Not met: not met.

stdin: Regarding "Nc1ncc(-c2cnn([C@H]3CC[C@H](O)CC3)c2)c2c(Cl)c(-c3cccc4nnsc34)oc12" , kindly confirm whether its IC50 is beneath 2 µM.
stdout: not met

stdin: Confirm or reject: IC50 of "Nc1ncc(-c2cnn([C@H]3CC[C@H](O)CC3)c2)c2c(-c3cccnc3)c(-c3cccc4nnsc34)oc12" lies strictly below 2 µM
stdout: not met

stdin: Please let me know if "Nc1ncc(-c2cnn([C@H]3CC[C@H](O)CC3)c2)c2c(C(F)F)c(-c3cccc4nnsc34)oc12" shows IC50 below 2 µM.
stdout: met

stdin: Strictly below 2 µM in IC50? "N#Cc1c(-c2cccc3nnsc23)oc2c(N)ncc(-c3cnn([C@H]4CC[C@H](O)CC4)c3)c12"
stdout: not met

stdin: Here's an entry: "Cn1cc(-c2cnc(N)c3oc(-c4csc5cnccc45)cc23)cn1" . Is its IC50 below 2 µM?
stdout: not met

stdin: Please indicate whether the reported IC50 of "COc1nn(C)cc1-c1cnc(N)c2oc(-c3csc4cnccc34)cc12" is strictly below 2 µM.
stdout: not met

stdin: Given "Nc1ncc(-c2cnn([C@H]3CC[C@H](O)CC3)c2)c2c(CF)c(-c3cccc4nnsc34)oc12" , is recorded IC50 strictly lower than 2 µM?
stdout: met

stdin: Report whether reported IC50 is lower than 2 µM (strictly) for "Cc1c(-c2cnc(N)c3oc(-c4csc5cnccc45)cc23)cnn1C"
stdout: not met

stdin: In the record for "Nc1ncc(-c2cnn([C@H]3CC[C@H](O)CC3)c2)c2c(-c3cncs3)c(-c3cccc4nnsc34)oc12" , is IC50 less than 2 µM?
stdout: met

stdin: In plain terms, does "Nc1ncc(-c2cnn([C@H]3CC[C@H](O)CC3)c2)c2cc(-c3cccc4nnsc34)oc12" come in under 2 µM for IC50?
stdout: met

stdin: Check if IC50 falls below 2 µM for "Cc1nn(C)cc1-c1cnc(N)c2oc(-c3csc4cnccc34)cc12" .
stdout: not met
